Target: T1, TNFR1 (Homo sapiens, UniProt P19438)
T1 chain: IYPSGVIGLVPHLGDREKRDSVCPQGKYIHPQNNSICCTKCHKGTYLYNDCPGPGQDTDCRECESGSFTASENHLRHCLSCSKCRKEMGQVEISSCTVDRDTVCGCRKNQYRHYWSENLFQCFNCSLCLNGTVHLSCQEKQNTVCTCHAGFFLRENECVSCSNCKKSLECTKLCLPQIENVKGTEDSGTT
Test: yeast display SC50
Readout kind: apparent Kd (screen) (nM)

Examples with their reported apparent Kd (screen) follow.
[[record]]
binder = "Q4S (designed binder) MTLSELLREEALRRAEAEAFRYALELLAEKFPEQKEYLLDLAEEIESQIRSLSGVDVEDVRKFLDKEWAWVKELLAEHPAELAEVEAARAARLAELRAEVEAKVAA"
quantitative_result = 1.16

[[record]]
binder = "P32T (designed binder) MTLQELLREEALRRAEAEAFRYALELLAEKFTEQKEYLLDLAEEIESQIRSLSGVDVEDVRKFLDKEWAWVKELLAEHPAELAEVEAARAARLAELRAEVEAKVAA"
quantitative_result = 0.539

[[record]]
binder = "E73K (designed binder) MTLQELLREEALRRAEAEAFRYALELLAEKFPEQKEYLLDLAEEIESQIRSLSGVDVEDVRKFLDKEWAWVKKLLAEHPAELAEVEAARAARLAELRAEVEAKVAA"
quantitative_result = 0.539

[[record]]
binder = "M1G (designed binder) GTLQELLREEALRRAEAEAFRYALELLAEKFPEQKEYLLDLAEEIESQIRSLSGVDVEDVRKFLDKEWAWVKELLAEHPAELAEVEAARAARLAELRAEVEAKVAA"
quantitative_result = 0.49


(A) A11Y (designed binder) MTLQELLREEYLRRAEAEAFRYALELLAEKFPEQKEYLLDLAEEIESQIRSLSGVDVEDVRKFLDKEWAWVKELLAEHPAELAEVEAARAARLAELRAEVEAKVAA
(B) I49A (designed binder) MTLQELLREEALRRAEAEAFRYALELLAEKFPEQKEYLLDLAEEIESQARSLSGVDVEDVRKFLDKEWAWVKELLAEHPAELAEVEAARAARLAELRAEVEAKVAA
(C) Y22E (designed binder) MTLQELLREEALRRAEAEAFREALELLAEKFPEQKEYLLDLAEEIESQIRSLSGVDVEDVRKFLDKEWAWVKELLAEHPAELAEVEAARAARLAELRAEVEAKVAA
(D) L27W (designed binder) MTLQELLREEALRRAEAEAFRYALELWAEKFPEQKEYLLDLAEEIESQIRSLSGVDVEDVRKFLDKEWAWVKELLAEHPAELAEVEAARAARLAELRAEVEAKVAA
Please order the records by their reported apparent Kd (screen), lowest number first. Returns: the labels listed in the requested order.
C, A, D, B
(C: 0.304 nM, A: 0.49 nM, D: 0.956 nM, B: 2.73 nM)
